# Tested on: MOLT-4
# protocol_text: NCI tumour cell line growth inhibition, 48 h
Calls of active or inactive are those of the source. No stated cut-off is given here; in the data, active = GI50 up to about 1.1 µM and inactive = higher.
Outcome codes: active, inactive

>>> print(df.to_string())
                                    compound  assigned_label
 0  O=c1[nH]nc(-c2ccccc2)n1/N=C/c1ccc([N+](=O)[O-])o1          active
 1  COC(=O)C(Cc1ccccc1)NC(=O)c1ccc(CNC(=S)NCc2cccc(CNC(=S)NCc3ccccc3)c2)cc1 (centres undefined)        inactive
 2  COc1ccc2c(-c3ccc(O)cc3)c(Oc3ccccc3)c(=O)oc2c1        inactive
 3                           O=C(O)Cc1cccnc1        inactive
 4  Cc1c(-c2cc(-c3ccccc3)n[nH]c2=O)c2ccccc2n1C        inactive
 5    O=C(O/N=C1/CCCC/C1=C\c1ccccc1)c1ccccc1        inactive
 6  CC1COS(=O)N1c1ccccc1 (centres undefined)        inactive
 7  C=C(CN1CC2C[C@](C(=O)OC)(c3cc4ccccc4[nH]3)C1C(OC)C2OC)S(=O)(=O)c1ccccc1 (some centres undefined)          active
 8  Cc1ccc(C(=O)OC[C@H]2CC[C@@H](n3cc(N(C)C4CCCCC4)c(=O)[nH]c3=O)O2)cc1        inactive
 9  COc1cc(CC(C)C(C)Cc2ccc(O)c(OC)c2)ccc1O (centres undefined) [DIHYDROGUAIARETIC ACID]        inactive
10  COC(=O)[C@@H]1CSC(=S)N1C(=O)C[C@H]1CC=CC[C@H]1CC(=O)Sc1ccccc1        inactive
11  C=CCc1cc(-c2cc(CC=C)c(O)c(CN(CCCl)CCCl)c2)cc(CN(CCCl)CCCl)c1O        inactive
12             Cc1c2ccncc2cc2c1[nH]c1ccccc12        inactive
13  C#C[C@]1(O)CC[C@H]2[C@@H]3CCC4=C/C(=N/CCOC(=O)c5cccc6cc7ccccc7nc56)CC[C@@H]4[C@H]3CC[C@@]21C        inactive

====

# Test system: K562
# protocol_text: NCI tumour cell line growth inhibition, 48 h
Activity calls are given as the source filed them. Cut-off read from the data, not from the text of the source: active = GI50 up to about 1.1 µM and inactive = higher.
Outcomes: 1 (yes) (active), 0 (no) (inactive)

>>> print(df.to_string())
                                   compound  target_desc  assigned_label
0      COC(=O)Cn1cnc2c(Cl)nc(Nc3ccccc3)nc21         K562          0 (no)
1  COc1c(OC(C)=O)c(OC(C)=O)cc2c1-c1ccc(OC)c(=O)cc1C(NC(C)=O)CC2 (stereo not drawn)         K562         1 (yes)
2  Cc1cc(C)nc(NS(=O)(=O)c2ccc(NC(=O)c3ccc4nc5ccccc5c(Nc5ccc(S(N)(=O)=O)cc5)c4c3)cc2)n1         K562          0 (no)

====

# Test system: HCC 2998
# protocol_text: NCI tumour cell line growth inhibition, 48 h
Activity calls are given as the source filed them. Cut-off read from the data, not from the text of the source: active = GI50 up to about 1.1 µM and inactive = higher.
reported_property: GI50

In [3]: df
Out[3]:
                                   compound  reported_property      reported_result
0  CCCCOC(=O)NC(Nc1ccc(S(=O)(=O)Nc2ncccn2)cc1)(C(F)(F)F)C(F)(F)F               GI50   33.5 µM (inactive)
1  O=C(N/N=C(COc1ccccc1)\N=C\c1cccnc1)c1ccncc1               GI50  > 100 µM (inactive)
2  S=C1c2cc(Cl)ccc2N=C(NC2CCCC2)C2CSCN12 (stereo not drawn)               GI50  > 100 µM (inactive)

====

# GI50 values compiled below
# System: HCC 2998
# protocol_text: NCI tumour cell line growth inhibition, 48 h
The source made the active and inactive calls. Cut-off read from the data, not from the text of the source: active = GI50 up to about 1.1 µM and inactive = higher.
reported_property: GI50

>>> df
                                   compound  reported_property      reported_result
0             Cc1cc(-c2nc3ccc(F)cc3s2)ccc1N               GI50   38.9 µM (inactive)
1  CC1CCC/C1=C(/I)C(=O)c1ccccc1 (stereo unspecified)               GI50  > 100 µM (inactive)
2  COc1ccc(C(=O)C(c2ccc(OC)cc2)C2(O)C(=O)Nc3c(C)cc(Cl)cc32)cc1 (stereo unspecified)               GI50  > 100 µM (inactive)
3      COc1ccc2[nH]c3c(C)c4ncccc4c(C)c3c2c1               GI50   8.97 µM (inactive)
4  C[C@]1(O)O[C@@H]2OCC[C@@H]2C2=C1C(=O)c1ccccc1C2=O               GI50   17.3 µM (inactive)
5  COc1ccc(C(=O)C(CC2C(=O)NC(=O)NC2=O)c2ccc(OC)cc2)cc1 (stereo unspecified)               GI50  > 100 µM (inactive)

====

Measured GI50 values are reported for all entries that follow.
# System: A498
# protocol_text: NCI tumour cell line growth inhibition, 48 h
Active and inactive are the calls of the source. Cut-off read from the data, not from the text of the source: active = GI50 up to about 1.1 µM and inactive = higher.
reported_property: GI50

                                    molecule      reported_result
 0  CC(C)C12CCC3(CCC4C(C)(C(=O)O)CCCC4(C)C3C1)C(CN)C2 (stereo unspecified)   28.8 µM (inactive)
 1  CC1(C)CCCCCC(C)(CCCCCCCCCCCO)C1=O (stereo unspecified)   17.9 µM (inactive)
 2          C[N+]1(C)CC[N+](C)(C)[BH-]1C(O)O  > 100 µM (inactive)
 3  COc1cc(/C=C2\C(=O)N(c3ccc(NC(C)=O)cc3)C(c3ccccc3)S2(=O)=O)cc(OC)c1OC (stereo unspecified)  > 100 µM (inactive)
 4  CCCCCCCCCCCCCCCC(=O)NC1CCc2cc(O)c(O)c(O)c2-c2ccc(SC)c(=O)cc21 (stereo unspecified)   19.3 µM (inactive)
 5              O=Cc1[nH]c(=O)[nH]c(=O)c1CCl  > 100 µM (inactive)
 6    CC(NC(=N)N)C(=O)O (stereo unspecified)  > 100 µM (inactive)
 7  O=c1[nH]nc(-c2ccccc2)n1/N=C/c1ccc([N+](=O)[O-])o1   9.12 µM (inactive)
 8  O=c1c(-c2ccccc2)c(SCCCN2CCCCC2)n(-c2ccccc2)c(=S)n1-c1ccccc1   15.1 µM (inactive)
 9  COc1ccccc1NC(=O)C1=C(C)NC(C)=C(C(=O)Nc2ccccc2OC)C1c1ccc([N+](=O)[O-])cc1  > 100 µM (inactive)
10   S=C(c1c[nH]c2ccccc12)N1CCN(c2ccccc2)CC1  > 100 µM (inactive)
11  Cc1ccc([N+](=O)[O-])cc1NC(=O)C(=O)C(C(=O)c1ccccc1F)C1OC(=O)c2ccccc21 (stereo unspecified)   98.4 µM (inactive)
12   Nc1nc(=O)c(/N=N/c2ccccc2)c(C(=O)O)[nH]1  > 100 µM (inactive)
13  O=C(O)c1cccc(CC(Br)C(=O)O)c1 (stereo unspecified)  > 100 µM (inactive)
14      COC(=O)Cn1cnc2c(Cl)nc(Nc3ccccc3)nc21  > 100 µM (inactive)
15            O=C1/C(=N/O)Cc2c(Br)ccc(Br)c21   68.1 µM (inactive)

====

Values of GI50 reported for HCT-15 appear below.

molecule	GI50
C/C(=C\CCC1=CC(=O)OC1)CC[C@@H]1[C@H]2C(=O)CC(C)[C@@]3(C)CC[C@]1(C)[C@@]23C (stereo not given in full)	> 10 µM
CCOC(=O)CSc1nc(-c2ccccc2)c(C#N)c(=O)[nH]1	> 100 µM
NC(CCCCNC(=O)CNC(=O)OCc1ccccc1)C(=O)NC(CCCCNC(=O)CNC(=O)OCc1ccccc1)C(=O)NC(CCCCNC(=O)CNC(=O)OCc1ccccc1)C(=O)NC(CCCCNC(=O)CNC(=O)OCc1ccccc1)C(=O)NC(CCCCNC(=O)CNC(=O)OCc1ccccc1)C(=O)NC(CCCCNC(=O)CNC(=O)OCc1ccccc1)C(=O)O (stereo not given)	> 75 µM
CN(C)/N=N/c1cccc(C(N)=O)c1	> 100 µM
CCOC(=O)C1=C(C)Nc2ccccc2S1	> 100 µM
C/C(CN1C(=O)c2ccccc2C1=O)=N\NS(=O)(=O)c1cccc(C(=O)O)c1	> 100 µM
c1ccc(SC(Sc2ccccc2)=C2CCC2)cc1	> 100 µM
Cc1ccc(S(=O)(=O)N2CCN(S(=O)(=O)c3ccc(C)cc3)Cc3ccccc3C2)cc1	> 100 µM
CCCCOC(=O)NC(Nc1ccc(S(=O)(=O)Nc2ncccn2)cc1)(C(F)(F)F)C(F)(F)F	> 100 µM
COC(CNC(=O)CNC(=O)c1ccc(C(F)(F)F)cc1)OC	> 100 µM
CCOC(=O)c1c(NC(=O)c2ccccc2)sc2c1CCC2	> 100 µM
COc1cc(C(=O)C/C(CCC(=O)Nc2ccc(Cl)cc2Cl)=N/NC(=O)C(=O)NN)ccc1O	> 100 µM
CN(C)CCNC(=O)Cn1cnc2cccc([N+](=O)[O-])c2c1=O	> 100 µM
O=C1NC(=O)C(=Cc2c3ccccc3cc3ccccc23)C(=O)N1	> 100 µM
O=C(NC(COC(=O)C(Cc1ccccc1)NC(=O)c1ccccc1)Cc1ccccc1)c1ccccc1 (stereo not given)	> 50 µM
CCN1C(=O)c2ccccc2C1(O)c1ccc(Cl)cc1 (stereo not given)	> 100 µM
COC(=O)[C@@H]1COC(=O)N1	> 100 µM
CC1=NN(C(=O)Nc2ccccc2)C(=O)C2CCC(=O)N12 (stereo not given)	> 100 µM
CSc1nc(SC)c2c(C#N)n[nH]c2n1	> 100 µM
Cc1cc(-c2nc3ccc(F)cc3s2)ccc1N	> 100 µM
